// FKBP (Homo sapiens, UniProt P62942) IC50 records
Enter your answer as a number in nM; do not include the unit.

>  <molecule>
CC[C@H](C)[C@H](NC(=O)[C@@H]1CCCCN1C[C@H](CC(C)C)NC(=O)OC(C)(C)C)C(=O)NCc1ccccc1 [Example 18]

>  <measure.name>
IC50

>  <result.units>
nM

>  <measured.value>
1300

$$$$

Ask | GET /values?readout=IC50&item= CC[C@H](C)[C@H](NC(=O)[C@@H]1CCCN1C[C@H](CC(C)C)NC(=O)[C@H](CC(N)=O)NC(=O)OC(C)(C)C)C(=O)OCc1ccccc1 [Example 10]
Reply | 900
